The reported numbers originate from patent US20160177307.

- Test system: VEGF-121 (Homo sapiens), P15692-9
- Sequence: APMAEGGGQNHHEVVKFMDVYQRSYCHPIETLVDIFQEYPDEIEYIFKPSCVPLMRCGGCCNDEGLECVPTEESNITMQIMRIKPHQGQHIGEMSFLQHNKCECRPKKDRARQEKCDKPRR
- test_name: filter
- experimental_conditions: P=Nap-dU
Lab note: anything with Kd below 1 nM is marked Yes; values at 1 nM or higher are marked No.

Quick check: does CCGTTCAAGTGCTTGTAAGATTTAAATGGA [4867-31_151] have Kd under 1 nM?
Yes

Quick check: does TCAGCCGTTCAAGTGCTTGTAGGATTTAAATGGAAT [4867-31_29] have Kd under 1 nM?
Yes

Quick check: does AATCAGCCGTTCAAGTGCTTGTAGGATTTAAATGGA [4867-31_39] have Kd under 1 nM?
Yes

Quick check: does ATCAGCCGTTCAAGTGCTTGTAGGATTTAAATGGAAT [4867-31_28] have Kd under 1 nM?
Yes

Quick check: does CCGTTGAAGTGCTTGTAGGATTTAAATGGA [4867-31_146] have Kd under 1 nM?
No
